PROCEDURE_DETAILS: Cytotoxicity against human BEAS2B cells after 72 hrs by MTT assay
Format: cell-based, BEAS-2B
TEST_CONDITIONS: BEAS2B cells
QUANTITY_NAME: GI50 at 72 h (µM)
Answers are plain numbers, in µM.

Here's what some known entries look like.
stdin: Please give the documented GI50 at 72 h of Sc1nc(NCc2ccccc2)c2ccccc2n1
stdout: 66.3

stdin: Given the compound CSc1ccc(CNc2nc([SeH])nc3ccccc23)cc1 , write its reported GI50 at 72 h.
stdout: 0.41

# context switch: different compound, same GI50 at 72 h
stdin: Please give measured GI50 at 72 h of the following entry: CCCCC[Se]c1nc(N)c2ccccc2n1
stdout: 52.2

* * *

PROCEDURE_DETAILS: Cytotoxicity against human 184B5 cells after 72 hrs by MTT assay
Format: cell-based
TEST_CONDITIONS: 184b5, 72 h
QUANTITY_NAME: TGI (µM)
Answers are plain numbers, in µM.

Use the examples below as a reference point.
stdin: Note TGI for the molecule shown: C[Se]c1nc(NCc2ccccc2)c2ccccc2n1
stdout: 12.41

stdin: Quote TGI reported for CSc1nc(NCCCCc2ccccc2)c2ccccc2n1 please.
stdout: 53.55

stdin: Give the value of TGI reported for the following: Nc1nc([SeH])nc2ncccc12
stdout: 31.05

stdin: Entry CSc1nc(NCCc2ccccc2)c2ccccc2n1 needs its TGI filled in; supply it.
stdout: 46.88

// below: TGI requested for another molecule
stdin: Identify measured TGI corresponding to [Se]=C=NCc1ccccc1 [BENZYLISOSELENOCYANATE]
stdout: 45.15

* * *

Test system: MCF7
PROCEDURE_DETAILS: Cytotoxicity against human MCF7 cells after 72 hrs by MTT assay
Assay type: functional
TEST_CONDITIONS: MCF7, 72 h
QUANTITY_NAME: LC50

In the examples that follow, each entry is paired with its recorded LC50.
stdin: Given the compound COc1ccc(CNc2nc(SC)nc3ccccc23)cc1 , write its reported LC50.
stdout: > 100 µM

stdin: Specify measured LC50 for C[Se]c1nc(N)c2ccccc2n1 .
stdout: > 100 µM

stdin: Find the measured LC50 of CSc1ccc(CNc2nc([Se]C)nc3ccccc23)cc1 and report it.
stdout: > 100 µM

stdin: For the compound [SeH]c1nc([SeH])c2ccccc2n1 , report LC50.
stdout: > 100 µM

stdin: Please list LC50 recorded for the compound CSc1ccc(CNc2nc(SC)nc3ccccc23)cc1
stdout: > 100 µM

stdin: Give the value of LC50 reported for the following: C[Se]c1nc(NCc2ccccc2)c2ccccc2n1
stdout: > 100 µM

***
stdin: Given CSc1nc(NCCCCCO)c2ccccc2n1 , respond with its LC50.
stdout: > 100 µM

* * *

For each of the compounds below, state its LC50.
PROCEDURE_DETAILS: Cytotoxicity against human 184B5 cells after 72 hrs by MTT assay
Type: cell-based
TEST_CONDITIONS: 184b5, 72 h

Worked examples, 5 compounds total:
stdin: Give the reported value of LC50 for this record: CSc1nc(NCCCc2ccccc2)c2ccccc2n1
stdout: > 100 µM

stdin: Hello, please tell me recorded LC50 for this one: Nc1nc([SeH])nc2ncccc12
stdout: 74.98 µM

stdin: Please give the documented LC50 of CSc1ccc(CNc2nc(SC)nc3ccccc23)cc1
stdout: > 100 µM

stdin: Respond only with LC50 recorded for CSc1nc(NCc2ccccc2)c2ccccc2n1
stdout: > 100 µM

stdin: Note down LC50 recorded for Nc1nc([SeH])nc2ccccc12
stdout: 80.37 µM

Now turn to the next compound.
stdin: Quick one: give measured LC50 for CCCCC[Se]c1nc([Se]CCCCC)c2ccccc2n1
stdout: > 100 µM

The measured values listed here are drawn from ChEMBL document CHEMBL1926588.
